system: tRNA 2'-phosphotransferase TPT1 (Candida albicans SC5314); assay: Candida albicans TPT1 enzyme inhibitors, primary screen, biochemical, fluorescence polarization (AID 1962); conditions: recombinant caTPT1, FP RNA substrate dephosphorylation; at 5 µM; active compounds read high;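 note: plate controls were DMSO alone for no effect and ferristatin control at 100 nM for full effect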
Hit rate of the full screen: of about 300,000 compounds, about 2,500 (0.83%) were called active. The sample as a whole holds a higher share of actives than the screen did.
Measured inhibition of individual entries
Please give a number only; it is taken to be in %.

Some compounds with recorded inhibition:
1) CCCCC(=O)N/N=C/c1c(O)n(CCC2=CCCCC2)c(=O)[nH]c1=O ... 0.99
2) CNC(=O)Nc1ccc(C(O)(C(=O)OC)C(F)(F)F)cc1 (centres undefined) ... 0.47
3) CCCCC(=O)N/N=C/c1c(O)n(CC)c(=S)n(CC)c1=O ... 156
4) CC1CCCCN1Cc1cccnc1 (centres undefined) ... -4.61
5) O=C1NC(=O)N(Cc2ccco2)C(=O)/C1=C\c1cccn1CCOc1ccccc1 ... 37.9
6) Cc1ccc(N2C(=O)NC(=O)C(CCc3ccncc3)(Cc3cccc(Cl)c3Cl)C2=O)cc1 (centres undefined) ... 3.87
7) COc1ccc(C2N3CC(C)(C)CN23)cc1 (centres undefined) ... 0.1
8) O=C(N/N=C/c1c(O)n(Cc2ccccc2)c(=O)[nH]c1=O)c1ccccc1 ... 2.3
9) CCC1(C)CC(CCNCc2ccc(N(C)C)cc2)(c2ccc(F)cc2)CCO1 (centres undefined) ... 1.22
10) COc1cccc(N2C(=O)NC(=O)/C(=C\c3cn(C)c4ccccc34)C2=O)c1 ... -73.3

Kindly consider the entry below.
# value of inhibition, tRNA 2'-phosphotransferase TPT1 (Candida albicans SC5314), item `CCCCC(=O)N/N=C/c1c(O)n(-c2ccccc2)c(=O)[nH]c1=O` = -0.86

====

tested on: tRNA 2'-phosphotransferase TPT1 (Candida albicans SC5314); experiment: Candida albicans TPT1 enzyme inhibitors, primary screen, biochemical, fluorescence polarization (AID 1962); details: recombinant caTPT1, FP RNA substrate dephosphorylation; at 5 µM; active compounds read high;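 note: plate controls were DMSO alone for no effect and ferristatin control at 100 nM for full effect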
Among all 300,000 compounds or so, about 2,500 (0.83%) were called active. This excerpt belongs to a sample that is enriched for actives.
Measured Parameter: inhibition (%)
Use % as the unit, but write only the number.

Worked cases, answers included:
1) CCOCCc1c(O)[nH]c(=S)[nH]c1=O ... -3.07
2) CN(C)CCCN=Cc1c(O)n(Cc2ccco2)c(=O)[nH]c1=O ... 1.6
3) O=C(C1CC(=O)N(C2CCCC2)C1)N1CCC2(CC1)OCCO2 (stereo not drawn) ... -0.68
4) O=C1N=c2ccccc2=C/C1=C\c1c(O)[nH]c(=S)[nH]c1=O ... -1.76
5) O=c1[nH]c(=O)n(-c2ccccc2)c(O)c1C=NC12CN3CN(CN(C3)C1)C2 ... -4.46

Entry `CN(c1ccccc1)c1ccc([N+](=O)[O-])c2nonc12` ; inhibition = 14.5

Field inhibition (entry `O=C(CCCn1c(=O)[nH]c2cc(Cl)ccc2c1=O)N1CCC2(CC1)OCCO2` ) reads 5.94

// field: inhibition; key: `Cn1c(O)c(C=Nc2ccc3c(c2)CCC3)c(=O)n(C)c1=O` ; value = -3.76

Documented inhibition of `COC(=O)COc1cc(C)cc2oc(=O)c3c(c12)CCCC3` : -2.95

For this molecule ( `COc1ccc(N2C(=O)/C(=C/c3ccco3)C(=O)NC2=S)cc1` ), measured inhibition is 36.7

Measured inhibition, `CCC(=NCc1ccco1)c1c(O)n(Cc2ccccc2)c(=O)[nH]c1=O` : 3.72

Lab note: COc1ccc2c(c1)[C@]13CCCCC1C(C2)N(C)CC3 (stereo partly drawn) gave inhibition of -1.13

====

test system: tRNA 2'-phosphotransferase TPT1 (Candida albicans SC5314); assay: Candida albicans TPT1 enzyme inhibitors, primary screen, biochemical, fluorescence polarization (AID 1962); conditions: recombinant caTPT1, FP RNA substrate dephosphorylation; at 5 µM; active compounds read high;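 note: plate controls were DMSO alone for no effect and ferristatin control at 100 nM for full effect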
In all, about 300,000 compounds went through this assay and about 2,500 (0.83%) were called active. The full list was thinned out, with actives kept by preference.
Measured Parameter: inhibition (%)
Enter your answer as a number in %; do not include the unit.

# count of solved cases: 5
1) CCOc1ccc(-c2cc(C)[n+](CCN(CC)CC)c(-c3ccc(OCC)cc3)c2)cc1 ... -0.45
2) O=C(O)COc1ccccc1/C=C1\C(=O)NC(=O)N(CCC2=CCCCC2)C1=O ... 7.72
3) COc1cccc(C(=O)N2C[C@H]3C[C@@H](C2)c2cccc(=O)n2C3)c1 ... -1.64
4) CC/C(=N\NC(=O)c1ccccc1O)c1c(O)n(Cc2ccccc2)c(=O)[nH]c1=O ... 46.6
5) CCOC(=O)c1c(C)c(C(=O)N2CCC3(CC2)OCCO3)c(C)n1CC ... 1.34

Reported inhibition for `COc1cc2nc(N3CCN(C(=O)[C@@H]4CCCO4)CC3)nc(N)c2cc1OC` was -1.38
